Listing of entries alongside the reported CC50.
# assayInfo: Cytotoxicity against human A549 cells assessed as reduction in cell viability by Celltiter-Glo assay
# Format: cell-based

Below are worked cases with known answers.
compound	endpointValue
Cc1c(Cc2ccccc2)c(=O)oc2cc(OCC(O)CNC3CCOCC3)ccc12 (stereo not given)	38.2 µM
COc1ccc(OC(COc2ccc3c(C)c(Cc4ccccc4)c(=O)oc3c2)CN2CCC(C(N)=O)CC2)cc1 (stereo not given)	94.9 µM
Cc1c(Cc2ccccc2)c(=O)oc2cc(OCC(O)CNCC3CC3)ccc12 (stereo not given)	> 100 µM

Inquiry: Dear colleague, I am looking for the recorded CC50 of the following compound: Cc1c(Cc2ccccc2)c(=O)oc2cc(OCC(CN3CCC(C(N)=O)CC3)Oc3ccc([N+](=O)[O-])cc3)ccc12 (stereo not given)
Reply text: 94.8 µM

Inquiry: Dear colleague, I am looking for the recorded CC50 of the following compound: Cc1c(Cc2ccccc2)c(=O)oc2cc(OCC(O)CNCc3ccccc3)ccc12 (stereo not given)
Reply text: > 100 µM
